# maps each entry to its IC50
- TARGET_SYSTEM: PD-1/PD-L1 interaction (PE-labeled human PD-L1-Ig binding to Jurkat cell line over-expressing human PD-1) (Homo sapiens)
- Construct: expressed in transfected cells; host or cells: Jurkat
- Sequence (Q15116 25-288): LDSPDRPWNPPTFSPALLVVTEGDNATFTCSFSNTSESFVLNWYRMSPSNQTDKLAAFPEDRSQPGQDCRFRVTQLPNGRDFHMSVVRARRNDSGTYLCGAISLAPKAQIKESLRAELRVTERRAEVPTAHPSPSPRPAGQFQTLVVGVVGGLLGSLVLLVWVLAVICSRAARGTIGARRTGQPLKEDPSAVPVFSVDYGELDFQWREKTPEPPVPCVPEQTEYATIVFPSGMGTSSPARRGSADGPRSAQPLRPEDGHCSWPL
- TEST: Jurkat-PD-1 Cell Binding High-Content Screening Assay (CBA)
- Assay type: cell-based
- EXPERIMENTAL_SETUP: Jurkat cell line over-expressing human PD-1; PE-labeled PD-L1-Ig 20 nM final; read-out: Jurkat hPD1-PDL1 IC50
- Protocol: Example 2: Jurkat-PD-1 Cell Binding High-Content Screening Assay (CBA) Phycoerythrin (PE) was covalently linked to the Ig epitope tag of human PD-L1-Ig and fluorescently-labeled PD-L1-Ig was used for binding studies with a Jurkat cell line over-expressing human PD-1 (Jurkat-PD-1). Briefly, 8×10^3 Jurkat-hPD-1 cells were seeded into 384 well plates in 20 μl of DMEM supplemented with 10% fetal calf serum. 100 nl of compound was added to cells followed by incubation at 37° C. for 2 h. […]
Mention the unit after the number when you answer.

Cc1cccc(C[C@@H]2NC(=O)[C@H](CC(=O)O)NC(=O)[C@H](Cc3ccc(OCC(=O)O)cc3)NC(=O)[C@H](CN)NC(=O)CN[C@@H](C(=O)N[C@@H](CCN)C(=O)NCCCCCCCCCCC(=O)O)CNC(=O)[C@H]([C@@H](C)O)NC(=O)[C@H](C(C)C)NC(=O)[C@H](CC3CCCCC3)NC(=O)[C@H](CCN)NC(=O)[C@@H](CC(C)C)NC(=O)[C@H](CCCN)NC(=O)[C@H](CCCNC(N)=O)NC(=O)[C@H](Cc3ccc(-c4ccccc4)cc3)NC(=O)[C@H](C(C)C)NC2=O)c1    129 nM

Next compound, please.
Any idea what IC50 was measured for CC(C)C[C@H]1NC(=O)[C@H](CCCN)NC(=O)[C@H](C(C)C)NC(=O)[C@H](Cc2ccc(-c3ccccc3)cc2)NC(=O)[C@H](C(C)C)NC(=O)[C@H](Cc2c[nH]c3ccccc23)NC(=O)[C@H](CC(=O)O)NC(=O)[C@H](Cc2ccc(OCC(=O)O)cc2)NC(=O)[C@H](CN)NC(=O)CSCC(C(=O)N[C@H](C)C(=O)NCCCCCCCCCCC(=O)O)NC(=O)[C@H]([C@@H](C)O)NC(=O)[C@H](C(C)C)NC(=O)[C@H](CC2CCCCC2)NC(=O)[C@H](Cc2cnc[nH]2)NC1=O (some centres unmarked) ?
37.6 nM

Where do these numbers come from? They come from patent US20260022142A1.
